Data provenance: patent US8791132B2

Target: rat adrenergic α1B receptor (Rattus norvegicus, UniProt P15823)
Construct: rat adrenergic α1B receptor obtained from Wistar Rat liver; from tissue; host or cells: Wistar rat liver
Sequence (P15823 1-515): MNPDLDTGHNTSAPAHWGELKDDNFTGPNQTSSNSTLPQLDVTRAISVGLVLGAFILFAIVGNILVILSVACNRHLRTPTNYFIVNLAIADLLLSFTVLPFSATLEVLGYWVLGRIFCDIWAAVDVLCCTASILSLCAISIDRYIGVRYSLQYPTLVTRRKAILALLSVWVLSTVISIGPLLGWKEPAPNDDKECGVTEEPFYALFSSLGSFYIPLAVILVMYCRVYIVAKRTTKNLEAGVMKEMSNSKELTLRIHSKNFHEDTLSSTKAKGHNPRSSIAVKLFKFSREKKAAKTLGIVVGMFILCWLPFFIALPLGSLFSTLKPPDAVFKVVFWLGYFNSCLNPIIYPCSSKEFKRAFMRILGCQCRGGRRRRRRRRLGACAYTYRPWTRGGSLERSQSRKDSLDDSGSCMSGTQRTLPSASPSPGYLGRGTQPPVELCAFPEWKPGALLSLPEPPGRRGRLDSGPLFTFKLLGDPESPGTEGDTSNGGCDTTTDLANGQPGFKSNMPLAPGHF
Assay: Radioligand binding, adrenergic α1B ([3H]Prazosin)
Conditions: 0.1 μM compound; read-out: Percentage inhibition of ligand binding, Adrenergic α1B
endpoint: inhibition at 0.1 µM (%)

[
  {
    "compound": "C/C(=C\\n1c2c(c3cc(C)ccc31)CN(C)CC2)c1ccc(F)nc1",
    "endpoint": "inhibition at 0.1 µM",
    "result": 39
  },
  {
    "compound": "C/C=C(/c1ccccc1)n1c2c(c3cc(C)ccc31)CN(C)CC2",
    "endpoint": "inhibition at 0.1 µM",
    "result": 52
  }
]

[I] Cc1ccc2c(c1)c1c(n2C#Cc2ccncc2)CCN(C)C1
[II] Cc1ccc2c(c1)c1c(n2CC(O)c2ccc(O)nc2)CCN(C)C1 (stereo not shown)
Input line: Thinking about recorded inhibition at 0.1 µM values, which is higher, I or II ? Give the label under which the chosen entry appears.
Output line: I
(I: 79%, II: 13%)
